Reported GPR17 Fold Induction (Over Vehicle; 3 μM) values are given for each entry in this list.
Test system: Oligodendrocyte progenitor cells (OPCs)
Test: In vitro OPC differentiation assay, GPR17 expression (immunocytochemistry)
Conditions: 3 μM (10× concentration, final 0.3 μM); 72 hours; fold change over vehicle
API doc: respond with a numeric literal and nothing else, no unit.

• Cn1cc(-c2ccc3c(N4CCN(c5ncc(C(O)CCc6ccccc6)cn5)CC4)cnn3c2)cn1 (centres unmarked) = 6.34

# input Would you kindly share the measured GPR17 Fold Induction (Over Vehicle; 3 μM) for C[C@@H](OC(=O)N1CCN(c2cnn3cc(-c4cnn(C)c4)ccc23)CC1)c1ccc(F)c(F)c1 ?
# output 4.88

# input Which value of GPR17 Fold Induction (Over Vehicle; 3 μM) has been reported for CCCCCc1cnc(N2CCN(c3cnn4cc(-c5cnn(C)c5)ccc34)CC2)nc1 in the records?
# output 6.05

* * *

Listing of entries alongside the reported GPR17 Fold Induction (Over Vehicle; 3 μM).
Test system: Oligodendrocyte progenitor cells (OPCs)
Assay: In vitro OPC differentiation assay, GPR17 expression (immunocytochemistry)
Details: 3 μM (10× concentration, final 0.3 μM); 72 hours; fold change over vehicle
Format: numeric value only, no unit, no commentary.

Example entries begin here.
* C[C@@H](OC(=O)N1CCN(c2cnn3cc(-c4cnn(C)c4)ccc23)CC1)c1ccccn1 [Compound 260] | 6.26
* Cn1cc(-c2ccc3c(N4CCN(c5ncc(Cc6ccccc6)cn5)CC4)nnn3c2)cn1 [Compound 9] | 1.88
* CC(C)(C)OC(=O)N1CCN(c2cnn3cc(CCCN4CCCC4)ccc23)CC1 [Compound 205] | 1.92
* Cn1cc(-c2ccc3c(N4CCN(S(=O)(=O)N5CCCCC5)CC4)cnn3c2)cn1 [Compound 157] | 2.80
* Cn1cc(-c2ccc3c(N4CCN(c5ncc(CCc6ccccc6)cn5)CC4)cnn3c2)cn1 [Compound 152] | 4.33
* Cn1cc(-c2ccc3c(N4CCN(C(=O)OC5CCC5)CC4)cnn3c2)cn1 [Compound 32] | 10.59
* CC(C)(C)OC(=O)N1CCN(c2cnc3nc(C4CCOC4)ccn23)CC1 (centres unmarked) [Compound 103] | 0.65

Alright, here's another compound for you.
# input Consider the compound CCC(O)c1cnc(N2CCN(c3cnn4cc(-c5cnn(C)c5)ccc34)CC2)nc1 (centres unmarked) [Compound 287] and give its measured GPR17 Fold Induction (Over Vehicle; 3 μM).
# output 6.48

* * *

System: Oligodendrocyte progenitor cells (OPCs)
Assay: In vitro OPC differentiation assay, GPR17 expression (immunocytochemistry)
Settings: 3 μM (10× concentration, final 0.3 μM); 72 hours; fold change over vehicle
Assay Metric: GPR17 Fold Induction (Over Vehicle; 3 μM)
Please state the value as a number alone, without comment.

Use the examples below as a reference point.
• Cn1cc(-c2ccc3c(N4CCN(c5ncc(C(C)(O)c6ccc(F)cc6)cn5)CC4)cnn3c2)cn1 (centres unmarked) = 6.86
• Cn1cc(-c2ccc3c(N4CCN(c5ncnn5Cc5ccccc5)CC4)cnn3c2)cn1 = 1.88
• CN(Cc1ccccc1)C(=O)N1CCN(c2cnn3cc(-c4cnn(C)c4)ccc23)CC1 = 2.90

# input What value of GPR17 Fold Induction (Over Vehicle; 3 μM) has been reported for the following compound? CC(C)(C)OC(=O)N1CCCN(c2cnc3nc(-c4cccnc4)ccn23)CC1
# output 0.72

# input Return reported GPR17 Fold Induction (Over Vehicle; 3 μM); argument: Cn1cc(-c2ccc3c(N4CCN(c5ncc(Cc6ccccc6)cn5)C(=O)C4)cnn3c2)cn1
# output 2.64

# input Using the record for Cn1cc(-c2ccc3c(N4CCCN(C(=O)OC(C)(C)C)CC4)cnn3c2)cn1 , report its GPR17 Fold Induction (Over Vehicle; 3 μM).
# output 1.27

# input Please give the measured GPR17 Fold Induction (Over Vehicle; 3 μM) for this compound: Cn1cc(-c2ccc3c(N4CCN(C(=O)OCc5ccccc5C(N)=O)CC4)cnn3c2)cn1
# output 3.05

# input Fill in: GPR17 Fold Induction (Over Vehicle; 3 μM) of Cc1ccc(C(C)OC(=O)N2CCN(c3cnn4cc(-c5cnn(C)c5)ccc34)CC2)nc1 (centres unmarked) is ___
# output 5.04

* * *

Below, each of the compounds is paired with its reported GPR17 Fold Induction (Over Vehicle; 3 μM) value.
System: Oligodendrocyte progenitor cells (OPCs)
Assay: In vitro OPC differentiation assay, GPR17 expression (immunocytochemistry)
Conditions: 3 μM (10× concentration, final 0.3 μM); 72 hours; fold change over vehicle
Answer as a number with no unit attached.

// known answers, use as guide
• Cn1cc(-c2ccc3c(C4=CCN(c5ncc(Cc6ccccc6)cn5)CC4)cnn3c2)cn1 = 2.92
• Cn1cc(-c2cc3ncc(N4CCCN(c5ncc(Cc6ccccc6)cn5)CC4)n3cn2)cn1 = 0.33
• Cn1cc(-c2ccc3c(N4CCN(C(=O)OC5CCOCC5)CC4)cnn3c2)cn1 = 1.78

Now look at this entry.
# input # get_value(readout='GPR17 Fold Induction (Over Vehicle; 3 μM)', item= CC(C)(C)OC(=O)N1CCN(c2cnn3cc(-c4cn(CCO)cn4)ccc23)CC1 )
# output 10.61

* * *

System: Oligodendrocyte progenitor cells (OPCs)
Test: In vitro OPC differentiation assay, GPR17 expression (immunocytochemistry)
Details: 3 μM (10× concentration, final 0.3 μM); 72 hours; fold change over vehicle
Assay Metric: GPR17 Fold Induction (Over Vehicle; 3 μM)
Form: value (number only, do not type unit).

• CCCc1ccc2c(N3CCN(C(=O)OC(C)(C)C)CC3)cnn2c1 = 1.35

# input Missing value: GPR17 Fold Induction (Over Vehicle; 3 μM), Oligodendrocyte progenitor cells (OPCs), entry C[C@@H](OC(=O)N1CCN(c2cnn3cc(-c4cnn(C)c4)ccc23)CC1)c1ccc(Cl)cc1Cl . Fill in?
# output 7.71

# input API: value(readout=GPR17 Fold Induction (Over Vehicle; 3 μM), system=Oligodendrocyte progenitor cells (OPCs)) for record Cn1cc(-c2ccc3c(N4CCN(c5ncc(CCCc6ccccc6)cn5)CC4)cnn3c2)cn1
# output 5.74

# input Return GPR17 Fold Induction (Over Vehicle; 3 μM) measured with Oligodendrocyte progenitor cells (OPCs) given this compound: CC[C@@H](OC(=O)N1CCN(c2cnn3cc(-c4cnn(C)c4)ccc23)CC1)c1ccccc1
# output 8.19

# input Form field: GPR17 Fold Induction (Over Vehicle; 3 μM) recorded for CC(C)(C)OC(=O)N1CCN(c2cnn3cc(-c4ccccn4)ccc23)CC1 with Oligodendrocyte progenitor cells (OPCs) (enter value)
# output 1.92

* * *

Target: PDGFRα (Homo sapiens (Human))
Sequence (P16234 24-1089): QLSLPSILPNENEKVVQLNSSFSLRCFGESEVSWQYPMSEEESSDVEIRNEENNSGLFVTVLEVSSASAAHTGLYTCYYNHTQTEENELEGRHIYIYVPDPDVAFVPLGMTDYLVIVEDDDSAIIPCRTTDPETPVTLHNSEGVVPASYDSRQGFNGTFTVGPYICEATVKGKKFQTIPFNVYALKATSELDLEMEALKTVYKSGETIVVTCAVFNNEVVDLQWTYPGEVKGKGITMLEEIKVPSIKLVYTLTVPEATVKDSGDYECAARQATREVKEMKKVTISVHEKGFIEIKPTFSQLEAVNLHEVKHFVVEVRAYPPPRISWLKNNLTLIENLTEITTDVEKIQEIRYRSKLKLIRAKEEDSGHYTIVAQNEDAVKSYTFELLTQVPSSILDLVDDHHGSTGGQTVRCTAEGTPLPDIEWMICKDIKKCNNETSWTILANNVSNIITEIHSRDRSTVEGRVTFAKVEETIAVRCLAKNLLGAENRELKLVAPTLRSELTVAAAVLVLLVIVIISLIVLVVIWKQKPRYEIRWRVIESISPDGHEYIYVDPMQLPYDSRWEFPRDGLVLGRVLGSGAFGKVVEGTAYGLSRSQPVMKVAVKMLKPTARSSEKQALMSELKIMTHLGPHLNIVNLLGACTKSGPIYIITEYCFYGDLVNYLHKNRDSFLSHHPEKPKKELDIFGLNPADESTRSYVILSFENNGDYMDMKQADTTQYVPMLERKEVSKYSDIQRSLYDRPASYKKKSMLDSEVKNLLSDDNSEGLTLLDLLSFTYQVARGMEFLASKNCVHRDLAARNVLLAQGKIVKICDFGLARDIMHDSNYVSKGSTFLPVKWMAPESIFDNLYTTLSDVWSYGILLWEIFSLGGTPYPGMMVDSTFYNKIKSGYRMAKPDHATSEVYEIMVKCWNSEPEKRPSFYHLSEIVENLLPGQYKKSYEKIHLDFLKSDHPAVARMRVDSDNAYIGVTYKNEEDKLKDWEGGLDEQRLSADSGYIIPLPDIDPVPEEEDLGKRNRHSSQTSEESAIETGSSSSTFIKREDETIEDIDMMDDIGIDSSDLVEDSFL
Assay: PDGFRα kinase enzyme assay (Promega PDGFRα Kinase Enzyme System, ADP-Glo)
Type: biochemical
Conditions: 11-point dose response, 10,000 nM to 0.169 nM; 150 uM ATP; BLQ = below limit of quantitation
Assay Metric: IC50 Values on PDGFRα Kinase Inhibition, IC50 (nM)

A selection of reference data follows.
- C[C@@H](OC(=O)N1CCN(c2cnn3cc(-c4cnn(C)c4)ccc23)CC1)c1ccc(C(F)(F)F)cc1 [Compound 313]: BLQ
- C[C@@H](OC(=O)N1CCN(c2cnn3cc(-c4cnn(C)c4)ccc23)CC1)c1ccc(F)cc1 [Compound 77]: BLQ
- Cn1cc(-c2ccc3c(N4CCN(c5ncc(C(O)c6ccc(F)cc6)cn5)CC4)cnn3c2)cn1 (centres unmarked) [Compound 26]: BLQ
- C[C@@H](NC(=O)N1CCN(c2cnn3cc(-c4cnn(C)c4)ccc23)CC1)c1ccc(C(F)(F)F)cc1 [Compound 288]: BLQ
- C[C@@H](OC(=O)N1CCN(c2cnc3cc(-c4cnn(C)c4)cnn23)CC1)c1ccc(C(F)(F)F)cc1 [Compound 283]: BLQ

# input What does the record list as IC50 Values on PDGFRα Kinase Inhibition, IC50 (nM) for C[C@@H](OC(=O)N1CCN(c2cnc3cc(-c4cnn(C)c4)cnn23)CC1)c1ccc(Cl)cc1 [Compound 282] ?
# output BLQ

# input For Cc1ccc([C@@H](C)OC(=O)N2CCN(c3cnn4cc(-c5cnn(C)c5)ccc34)CC2)cc1 [Compound 267] , what is its reported IC50 Values on PDGFRα Kinase Inhibition, IC50 (nM)?
# output BLQ

# input Return reported IC50 Values on PDGFRα Kinase Inhibition, IC50 (nM); argument: CC(OC(=O)N1CCN(c2cnn3cc(-c4cnn(C)c4)ccc23)CC1)c1ccc(Cl)cc1 (centres unmarked) [Compound 265]
# output BLQ

* * *

Biological target: PDGFRα (Homo sapiens (Human))
Assay: PDGFRα kinase enzyme assay (Promega PDGFRα Kinase Enzyme System, ADP-Glo)
Type: biochemical
Conditions: 20 ng purified PDGFRα, 150 uM ATP, Poly (Glu4Tyr1) substrate, two hours, 11-point dose response; read-out: IC50 Values on PDGFRα Kinase Inhibition
Structures can show the parent of a compound that is named as a salt.
Assay Metric: IC50 (nM)
Numbers only; they are read as nM.

Sample records with IC50:
• COc1ccc(-c2cncc(N[C@@H](C)c3cccc(NC(=O)c4cncc(C)c4)c3)n2)cc1OC [Seralutinib, seralutinib, reference compound] = 228
• COc1cc2c(Oc3ccc4[nH]c(C)cc4c3F)ccnc2cc1OCC1(N)CC1 [Anlotinib HCl, anlotinib HCl, reference compound] = 1360
• Nc1nc(Nc2ccc3c(c2)CC[C@@H](N2CCCC2)CC3)nn1-c1cc2c(nn1)-c1ccccc1CCC2 [Bemcentinib, bemcentinib, reference compound] = 428
• CN1CCN(c2ccc(Nc3ncc4cc(C#N)c(=O)n(C5CCCC5)c4n3)cc2)CC1 [ON123300, reference compound] = 73.5
• COCCOc1ccc2c(c1)ncn2-c1ccc2cccc(N3CCC(N)CC3)c2n1 [CP-673451, reference compound] = 115

Attention now shifts to the item below.
# input Consider the molecule shown here: COc1ccc(N2Cc3cnc(Nc4ccc(F)cc4)nc3N([C@@H]3CC[C@@H](O)C3)C2=O)cc1 [RO4396686, reference compound] What is its recorded IC50?
# output 370
